Entry source: the supplement of paper PMC12764529

test: folding stability dG unfold (combined trypsin and chymotrypsin); higher = more stable
Parameter measured: folding stability dG unfold (kcal/mol)

* SAGGSAGVPPGGRVRVLVYNPLTGEVREVELPVGSLEEFLRGANLPAPLPDGRPAPVVVEILEVEPSAGGSA [r15_797_TrMRF] | 2.64
* SAGGSAGGDPNDKPMKFELIETFTIPGNLNEAKDFLEDLLPPNWAINVEQEPGMITITIYKMKDSAGGSAGG [r6_953_TrROS] | 2.22
* SAGGSAPSSGNVLEIKVEKLPDGTLVGTLTVKDPNSSNTTTIEITIPSSKTPEEAEAELKKIVEEASAGGSA [r15_181_JUSTAS] | 2.11
* SAGGEKRYLVRVRAYYRFEEGERELDLEVEVTSPEEAKELLEKIATRLRKLYPDRIRIEVEIRPLEESAGGS [r16_475_TrMRF] | 4.94
* SMKKTIIIKVKKEDMTPEEIAKKLAELGYEVEIVDVEYDEETEEVYITVEIYDENGELIEKIEIKLPRKDSA [r9_879_TrROS_Hall] | 0.916
* SAGGSAGGSAGGEPDPKFHVEYDEEEGRYKVKIYNPNNNKKEEIEVPVPPGQPKEEAIKSAGGSAGGSAGGS [r10_676_TrROS] | -0.269

* * *

assay: folding stability dG unfold (combined trypsin and chymotrypsin); higher = more stable
Below: a set of entries, each annotated with reported folding stability dG unfold.
Parameter measured: folding stability dG unfold (kcal/mol)

- SAGGSAGGSAMKYTVTVTLPNGTTLTLDVGTETEEEAVSETKKLIAEKYPDVKGAKIDLTKESAGGSAGGSA [r18_434_JUSTAS]: 2.33
- SAGGSAGGEELAKRLKELFPNAKIVEIKYDKKTKKVTIKVELEPGMSEEQRERLRKLLEELLKKSAGGSAGG [r6_97_TrROS_Hall]: 3.07
- SAGGSAGGSAALGDESLHRPVPVVSTSPVTTTTTLTLTPPNGVTVTESVTTTTTVYGSGAASAGGSAGGSAG [r3_380_JUSTAS]: 0.172
- SAGGSAGGSAGGGEYAKIKIKNPINPKYKEIEIEIPSNKKNVIINATGSGNATITEIKLESAGGSAGGSAGG [r7_687_TrMRF]: -0.584
- SAGGSAGGSAGGSMKIYKITVKKEDSELEFYVSDDVPAEVAANILKALYPDVEVKIEEGSAGGSAGGSAGGS [r4_155_TrMRF]: 1.11
- SAGGSMVIPTKVSSLEEAKQVAEEILKKLGRPLTLDDVSFDPEKFKAELKPDTPVVVKVKDPSGVTLGASAG [r5_503_JUSTAS]: 0.409
- SAGGKKVEITIEASPEEAEELAKKLEELFPDVKVEVVEVKPEEPVRVTVRVEVKVELSPEELKKLLESAGGS [r16_180_TrROS_Hall]: 1.4
- MIPLTLEYDPEKKVIRLKTPDGKPVIVEAGDKGYRVIIYDPKTGKPTVIPVTEKELLDLAKNPAFNLDLAAS [r1_18_TrMRF]: 1.65
- SAGGSAGGSAGGKDPYLALKTVRVRLVRDYLLGDKPVKTELIEEADVPVLIVFEPEELLSAGGSAGGSAGGS [r10_492_TrMRF]: 0.441
- SAGGSAGGSAGGMPIPVTITVSDPATGTTKVVKTVLVTSPEKLEEVISKLPEGKKYTVVESAGGSAGGSAGG [r7_307_JUSTAS]: -0.393
- SAGGARREIVIEIEADTLEEALAAAREALAALEDPEDLTVTIVVRLPPPPPPPRPRRVRLDGEEVELRSAGG [r13_718_TrROS_Hall]: 1.01
- SAGGSAGGSAGEIVEVDGKLYIRVRTKDGEWKLIEMSADEIASLPAENVEEVEIVDPKDLSAGGSAGGSAGG [r11_779_TrROS_Hall]: 3.08
- SAGGSAGGSAMKVGEEVEVTVRIKVDGKEYEVKAKATLDEDGNVTLEVEIKAKEGKVEIEIESAGGSAGGSA [r18_428_TrROS_Hall]: 2.63
- SAGGSAGGMTPEEERRKKESPVPPVNKVTVKIPVPSSVSEEVAKEIAEKLEKESGAKKVEVILPSAGGSAGG [r6_517_JUSTAS]: 1
- SAGGSAGGSADIKVEVEYDKSNGYMWVKIKLPGKDIPIWIPPNDSPEQMEEKAIDFAKYLLKSAGGSAGGSA [r18_266_TrROS]: 0.791
- SAGGMPPGYRVVLVTKEVETVTFEKKPGNENEYTTTPKIVPREEVVEVTSPEVLAELEAEGYEVTPASAGGS [r8_482_JUSTAS]: -0.0223
- SAGGSAGGSAKMEIVLEVDTPEEAKEAAKKLAEELKKKGYKVKVEVKKLKNGKYYVKITVDSAGGSAGGSAG [r3_211_TrROS_Hall]: 4.66
- SAPLTPEEAEEWAETLADELADKAGIPNVEIKVEPSPDGYWTAEIRFPNNGKKIRITWENGRPKITEIESAG [r14_925_TrROS]: 2.74
- SAGGIEDIANEFGIEDVEIEEINPEYNEVTVTFRFRGPNGNPFTWTYTIEVPPPPPPEPKMDPEDNNNSAGG [r13_608_TrROS]: 1.81
- SPIKLPIVFPNLPKEEAKEAVEALAKELEEKYGFKIEVEVEELRAPDGKLVAVVAIATIEKFGEEDKLLFSA [r9_21_TrMRF]: 1.2
- LDPNKPENIALLEKVEEAAKAVIEELEKAGYKVEKLYVALGPNGIKIAPVTIPPEFIEELKKAGILVIPVLS [r1_134_TrMRF]: 1.56
- SGLPEELARKLGLSAMTPLPDGTLVMALPDGTRVVVRIETTEVRLSPLGEPAVEVEVEVERLPAPAPEAASA [r9_648_JUSTAS]: 1.6
- SAGGSAKPKIEIEVEKLEGVKEGDTIEVKIKFPNGFIIKIEAKVKRVDGKLVIEVTKVEVIPKEDLSAGGSA [r15_636_TrROS_Hall]: 3.16
- SAGGSAGGSAGPTITYHPDGRVRIDLHLPNGELLDTGVITPDEAVRLLLETGVRLRTIRPSAGGSAGGSAGG [r11_521_TrMRF]: 0.166
- SAGGSAGGSAEVTFKKVSFSPPENTVYVSEVKAKLYVGEDDSLKFKVEPVKVEKVSPADLLAKSAGGSAGGS [r12_374_TrMRF]: -0.439
